- target-under-test: PD-1-Ig/PD-L1-His (Homo sapiens, UniProt Q9NZQ7)
- Construct: [hPD-L1(19-239)-tobacco vein mottling virus protease cleavage site (TVMV)-His]; made in house; host or cells: HEK293T cells
- Sequence (Q9NZQ7 with tags, fused parts or gaps): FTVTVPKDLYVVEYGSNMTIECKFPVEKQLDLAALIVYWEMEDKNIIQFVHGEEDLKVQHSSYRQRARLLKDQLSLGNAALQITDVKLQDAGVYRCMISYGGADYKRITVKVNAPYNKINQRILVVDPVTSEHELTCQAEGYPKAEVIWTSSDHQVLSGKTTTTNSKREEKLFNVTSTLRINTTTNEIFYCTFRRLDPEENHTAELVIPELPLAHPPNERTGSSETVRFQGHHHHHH
- assay-name: PD-1/PD-L1 Homogenous Time-Resolved Fluorescence (HTRF) binding assay
- condition-description: inhibition of PD-1-Ig binding to PD-L1-TVMV-His; range classes
assay-metric: IC50

Take a look at these entries with their results.
* CCCC[C@H]1C(=O)N[C@@H](CN)C(=O)N[C@H](C(=O)NCC(N)=O)CSCC(=O)N[C@@H](Cc2ccc(O)cc2)C(=O)N(C)[C@@H](C)C(=O)N[C@@H](CC(=O)O)C(=O)N2CCC[C@H]2C(=O)N[C@@H](Cc2cnc[nH]2)C(=O)N[C@@H](CCC(N)=O)C(=O)N2C[C@H](O)C[C@H]2C(=O)N[C@@H](Cc2c[nH]c3ccccc23)C(=O)N[C@@H](CO)C(=O)N[C@@H](Cc2cccc3ccccc23)c2nnnn2[C@@H](CCCC)C(=O)N1C | 0.1 to 10 µM
* CCCC[C@H]1C(=O)N[C@@H](C)C(=O)N[C@H](C(=O)NCC(N)=O)CSCC(=O)N[C@@H](Cc2ccc(O)cc2)C(=O)N(C)[C@@H](C)C(=O)N[C@@H](CC(=O)O)C(=O)N2CCC[C@H]2C(=O)N[C@@H](Cc2cnc[nH]2)C(=O)N[C@@H](CCC(N)=O)C(=O)N2C[C@H](O)C[C@H]2C(=O)N[C@@H](Cc2c[nH]c3ccccc23)C(=O)N[C@@H](CO)C(=O)N[C@@H](Cc2cccc3ccccc23)c2nnnn2[C@@H](CCCC)C(=O)N1C | 0.1 to 10 µM

Please turn your attention to the following entry.
# input molecule: CCCC[C@H]1C(=O)N(C)[C@@H](CCCC)C(=O)N[C@@H](CCCNC(=N)N)C(=O)N[C@H](C(=O)NCC(N)=O)CSCC(=O)N[C@@H](Cc2ccccc2)c2nnnn2[C@@H](C)C(=O)N[C@@H](CC(N)=O)C(=O)N2CCC[C@H]2C(=O)N[C@@H](Cc2cnc[nH]2)C(=O)N[C@@H](CC(C)C)C(=O)N(C)CC(=O)N[C@@H](Cc2c[nH]c3ccccc23)C(=O)N[C@@H](CO)C(=O)N[C@@H](Cc2c[nH]c3ccccc23)C(=O)N1C (single isomer, unassigned) ; wanted: its IC50
0.1 to 10 µM

###

- target-under-test: PD-1-Ig/PD-L1-His (Homo sapiens)
- Construct: [hPD-L1(19-239)-tobacco vein mottling virus protease cleavage site (TVMV)-His]; made in house; host or cells: HEK293T cells
- assay-name: PD-1/PD-L1 Homogenous Time-Resolved Fluorescence (HTRF) binding assay
- condition-description: inhibition of PD-1-Ig binding to PD-L1-TVMV-His; range classes
assay-metric: IC50

• CCCC[C@H]1C(=O)N[C@@H](CCCNC(=N)N)C(=O)N[C@H](C(=O)NCC(N)=O)CSCC(=O)N[C@@H](Cc2ccc(O)cc2)C(=O)N(C)[C@@H](C)C(=O)N[C@@H](CC(N)=O)C(=O)N2CCC[C@H]2C(=O)N[C@@H](Cc2cnc[nH]2)C(=O)N[C@@H](CC(C)C)C(=O)N2C[C@H](O)C[C@H]2C(=O)N[C@@H](Cc2c[nH]c3ccccc23)C(=O)N[C@@H](CO)C(=O)N[C@@H](Cc2cccc3ccccc23)c2nnnn2[C@@H](CCCC)C(=O)N1C = 10 to 99 nM
• CCCC[C@@H]1C(=O)N[C@@H](CCCNC(=N)N)C(=O)N[C@H](C(=O)NCC(N)=O)CSCC(=O)N[C@@H](Cc2ccccc2)c2cnnn2[C@@H](C)C(=O)N[C@H](CC(N)=O)C(=O)N2CCC[C@H]2C(=O)N[C@@H](Cc2cnc[nH]2)C(=O)N[C@@H](CC(C)C)C(=O)N(C)CC(=O)N[C@@H](Cc2c[nH]c3ccccc23)C(=O)N[C@@H](CO)C(=O)N[C@@H](Cc2c[nH]c3ccccc23)C(=O)N(C)[C@@H](CCCC)C(=O)N1C (single isomer, unassigned) [Example 1003] = 100 to 10000 nM

# input compound: CCCC[C@H]1C(=O)N[C@@H](CN)C(=O)N[C@H](C(=O)NCC(N)=O)CSCC(=O)N[C@@H](Cc2ccc(O)cc2)C(=O)N(C)[C@@H](C)C(=O)N[C@@H](CC(=O)O)C(=O)N2CCC[C@H]2C(=O)N[C@@H](CN)C(=O)N[C@@H](CCC(=O)O)C(=O)N2C[C@H](O)C[C@H]2C(=O)N[C@@H](Cc2c[nH]c3ccccc23)C(=O)N[C@@H](CO)C(=O)N[C@@H](Cc2cccc3ccccc23)c2nnnn2[C@@H](CCCC)C(=O)N1C ; wanted: its IC50
10 to 99 nM
